Target: CV S-protein construct 6 trimer TP31001F (SARS-CoV-2, UniProt P0DTC2 14-1208)
Assay: SPR
property_label: Kd (nM)
Unit nM implied. Number only.

INPUT: May I ask what Kd has been recorded for variant 6-90 (Fc fusion) VHH: EVQLVESGGGLVQPGGSLRLSCAASGFPFSIWPMGWFRQAPGKEREFVAAVRWSSTYYADSVKGRFTISADNSKNTAYLQMNSLKPEDTAVYYCATGECDGGSCSLAYWGQGTLVTVSS ?
OUTPUT: 17.1

INPUT: Reported Kd, binder variant 6-51 (Fc fusion) VHH: EVQLVESGGGLVQPGGSLRLSCAASGYTYSSYVMGWFRQAPGKEREFVAAISRFGSTYYADSVKGRFTISADNSKNTAYLQMNSLKPEDTAVYYCARDSGEHFWDSGYIDHWGQGTLVTVSS : ____
OUTPUT: 0.8

INPUT: Which Kd reading was recorded for the binder variant 6-33 (Fc fusion) VHH: EVQLVESGGGLVQPGGSLRLSCAASGTFQRINHMGWFRQAPGKEREFVATINTGGQPNYADSVKGRFTISADNSKNTAYLQMNSLKPEDTAVYYCASLIAAQDYYFDYWGQGTLVTVSS ?
OUTPUT: 0.2

INPUT: Reported Kd, binder variant 6-99 (Fc fusion) VHH: EVQLVESGGGLVQPGGSLRLSCAASGIPFRSRTMGWFRQAPGKEREFVAGISRSGASTAYADSVKGRFTISADNSKNTAYLQMNSLKPEDTAVYYCTHANDYGDYWGQGTLVTVSS : ____
OUTPUT: 3.4
